methodSummary: Continuous feeding of chicks for nine weeks
Assay type: in vivo, chicken
measurementSetup: chicken, in vivo, po; 0.025% in feed
recordedEndpoint: mortality at 1512 h (%)
Give just the numeric value; % need not be written.

Item: CCC(C(=O)C(C)C(O)C(C)CCc1ccc(C)c(O)c1C(=O)O)C1OC(CC)(C2CCC(O)(CC)C(C)O2)CC1C (stereo not shown) [antibiotic X-537A] | mortality at 1512 h: 25

----------
methodSummary: Acute oral toxicity in broiler chicks
measurementSetup: chicken, in vivo; oral single dose, 9- or 8-day-old chicks; limits given as 59 ±3 mg. and 84 ±7 mg.
Structures can show the parent of a compound that is named as a salt.
recordedEndpoint: LD50

For this compound ( CCC(C(=O)C(C)C(O)C(C)CCc1ccc(C)c(O)c1C(=O)O)C1OC(CC)(C2CCC(O)(CC)C(C)O2)CC1C (stereo not shown) [sodium salt of antibiotic X-537A] ), measured LD50 is 59 to 84 mg/kg

Ref: patent USRE29244E
